Origin of the recorded values: ChEMBL document CHEMBL1128867

Test system: CCRF-CEM
Experiment: Inhibitory activity against CEM cells
Assay type: functional, cell-based
Conditions: Homo sapiens
assay-readout: IC50 (µg/mL)
Respond with the bare value in µg/mL.

Completed entries (count: 4):
Cc1ccc(N)cc1C(=O)N[C@@H](CSc1ccc2ccccc2c1)[C@H](O)Cc1ccccc1C(=O)NC(C)(C)C ... 1.3
CC(C)(C)NC(=O)c1ccccc1C[C@@H](O)[C@H](CSc1ccc2ccccc2c1)NC(=O)c1cccc(N)c1Br ... 1.6
CC(C)(C)NC(=O)c1ccccc1C[C@@H](O)[C@H](CSc1ccc2ccccc2c1)NC(=O)c1cccc(N)c1Cl ... 1.5
CC(C)(C)NC(=O)c1ccccc1C[C@@H](O)[C@H](CSc1ccc2ccccc2c1)NC(=O)c1cccc2[nH]ccc12 ... 6.6

Looking for the measured IC50 of `Cc1c(N)cccc1C(=O)N[C@@H](CSc1ccc2ccccc2c1)[C@H](O)Cc1ccccc1C(=O)NC(C)(C)C` , can you help? 5

What IC50 value was documented for this compound, `CC(C)(C)NC(=O)c1ccccc1C[C@@H](O)[C@H](CSc1ccc2ccccc2c1)NC(=O)c1cccc2cnccc12` ? 16
